Below, each of the binders is paired with its reported EC50 (luciferase reporter) value.
Target: T1, GPR39 (G protein-coupled receptor 39) (Homo sapiens (Human), UniProt O43194 1-453)
T1 sequence: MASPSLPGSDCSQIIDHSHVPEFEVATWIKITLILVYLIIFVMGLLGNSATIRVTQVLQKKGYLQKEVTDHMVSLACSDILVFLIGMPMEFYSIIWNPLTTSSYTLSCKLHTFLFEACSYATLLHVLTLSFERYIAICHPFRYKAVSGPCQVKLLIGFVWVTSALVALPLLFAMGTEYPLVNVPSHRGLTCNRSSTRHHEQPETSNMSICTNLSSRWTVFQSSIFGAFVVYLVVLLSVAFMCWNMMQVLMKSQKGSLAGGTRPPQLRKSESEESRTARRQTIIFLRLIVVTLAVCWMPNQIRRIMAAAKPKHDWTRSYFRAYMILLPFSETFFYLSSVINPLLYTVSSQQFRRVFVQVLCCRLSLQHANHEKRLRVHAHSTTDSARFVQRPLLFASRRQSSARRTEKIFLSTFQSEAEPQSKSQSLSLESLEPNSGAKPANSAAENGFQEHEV
Test: cell-based or functional assay
Numbered stars: 1 amine (or outer) side, 2 acyl side, 3 side chain; on linkers, the order of the positions; unused ones are H or OH. Square brackets hold non-standard residues; d marks the D form. Ends that are not written are not given here. * marks the point of attachment. 1,2‑diphenyl = His whose imidazole is a 1,2-diphenyl-1H-imidazol-4-yl group, O=C([C@H](Cc1cn(-c2ccccc2)c(-c2ccccc2)n1)N[*:1])[*:2]; tbm = (2'-(1H-tetrazol-5-yl)-[1,1'-biphenyl]-4-yl)methyl on the histidine imidazole nitrogen, c1ccc(-c2nn[nH]n2)c(-c2ccc(C*)cc2)c1; 4‑methoxylbenzhydryl = COc1ccc(C(c2ccccc2)*)cc1; dPhe(4-Me) = Cc1ccc(C[C@@H](N)C(=O)O)cc1; Trt = c1ccc(C(c2ccccc2)(c2ccccc2)*)cc1; Dmt = Cc1cc(O)cc(C)c1C[C@H](N)C(=O)O; Benzhydryl = c1ccc(C(c2ccccc2)*)cc1; 2‑cyclohexylethyl = C1CCC(CC*)CC1; Octanoyl = CCCCCCCC(=O)*
MEASURED_PARAMETER: EC50 (luciferase reporter) (nM)

- H(tbm)K(Octanoyl)FY (not fully specified (residue 3); printed as His(tbm)-Lys(caprylic)-d-Phe(4-CF3)-Tyr) [HKFY-77]: 7
- H(1,2‑diphenyl)K(Octanoyl)[dPhe(4-Me)]Y [HKFY-59]: 550
- H(Trt)K(Octanoyl)FYHQQARF (not fully specified; printed as His(trt)-Lys(caprylic)-Phe-Tyr-His-Gln-Gln-Ala-Arg-Phe) [HKFY-42]: 1580
- H(2‑cyclohexylethyl)K(Octanoyl)FY [HKFY-11]: 57800
- H(Trt)FYDQQARF (not fully specified; printed as His(trt)-Phe-Tyr-Asp-Gln-Gln-Ala-Arg-Phe) [HKFY-52]: 56400
- H(Trt)K(Octanoyl)FYQNGARF [HKFY-41]: 9550
- H(4‑methoxylbenzhydryl)K(Octanoyl)FY [HKFY-20]: 159000
- [dH](Trt)K(Octanoyl)FY [HKFY-4]: 130
- H(Benzhydryl)K(Octanoyl)[dPhe(4-Me)][Tyr(3-nitro)] [HKFY-68]: 13
- H(Trt)K(Octanoyl)YY [HKFY-48]: 330
- H(Trt)K(Octanoyl)FS [HKFY-50]: 700
- H(Benzhydryl)K(Octanoyl)[dPhe(4-Me)][Dmt] [HKFY-36]: 150
